Origin of the recorded values: patent US20180099931A1

target: F508delCFTR (Homo sapiens, UniProt P13569, DEL508-508); construct: expressed in transfected cells; host or cells: CFBE41o- human lung-derived epithelial cells (CFBE4lo-F508delCFTR-HRP), doxycycline-inducible; assay: Cell Surface Expression-Horse Radish Peroxidase (CSE-HRP) Assay; assay type: cell-based; settings: with co-corrector (2 μM of 3-[(2R,4R)-4-({[1-(2,2-difluoro-1,3-benzodioxol-5-yl)cyclopropyl]carbonyl}amino)-7-methoxy-3,4-dihydro-2H-chromen-2-yl]benzoic acid); read-out: EC50 (with co-corrector)
Sequence (P13569 with tags, fused parts or gaps DEL508-508): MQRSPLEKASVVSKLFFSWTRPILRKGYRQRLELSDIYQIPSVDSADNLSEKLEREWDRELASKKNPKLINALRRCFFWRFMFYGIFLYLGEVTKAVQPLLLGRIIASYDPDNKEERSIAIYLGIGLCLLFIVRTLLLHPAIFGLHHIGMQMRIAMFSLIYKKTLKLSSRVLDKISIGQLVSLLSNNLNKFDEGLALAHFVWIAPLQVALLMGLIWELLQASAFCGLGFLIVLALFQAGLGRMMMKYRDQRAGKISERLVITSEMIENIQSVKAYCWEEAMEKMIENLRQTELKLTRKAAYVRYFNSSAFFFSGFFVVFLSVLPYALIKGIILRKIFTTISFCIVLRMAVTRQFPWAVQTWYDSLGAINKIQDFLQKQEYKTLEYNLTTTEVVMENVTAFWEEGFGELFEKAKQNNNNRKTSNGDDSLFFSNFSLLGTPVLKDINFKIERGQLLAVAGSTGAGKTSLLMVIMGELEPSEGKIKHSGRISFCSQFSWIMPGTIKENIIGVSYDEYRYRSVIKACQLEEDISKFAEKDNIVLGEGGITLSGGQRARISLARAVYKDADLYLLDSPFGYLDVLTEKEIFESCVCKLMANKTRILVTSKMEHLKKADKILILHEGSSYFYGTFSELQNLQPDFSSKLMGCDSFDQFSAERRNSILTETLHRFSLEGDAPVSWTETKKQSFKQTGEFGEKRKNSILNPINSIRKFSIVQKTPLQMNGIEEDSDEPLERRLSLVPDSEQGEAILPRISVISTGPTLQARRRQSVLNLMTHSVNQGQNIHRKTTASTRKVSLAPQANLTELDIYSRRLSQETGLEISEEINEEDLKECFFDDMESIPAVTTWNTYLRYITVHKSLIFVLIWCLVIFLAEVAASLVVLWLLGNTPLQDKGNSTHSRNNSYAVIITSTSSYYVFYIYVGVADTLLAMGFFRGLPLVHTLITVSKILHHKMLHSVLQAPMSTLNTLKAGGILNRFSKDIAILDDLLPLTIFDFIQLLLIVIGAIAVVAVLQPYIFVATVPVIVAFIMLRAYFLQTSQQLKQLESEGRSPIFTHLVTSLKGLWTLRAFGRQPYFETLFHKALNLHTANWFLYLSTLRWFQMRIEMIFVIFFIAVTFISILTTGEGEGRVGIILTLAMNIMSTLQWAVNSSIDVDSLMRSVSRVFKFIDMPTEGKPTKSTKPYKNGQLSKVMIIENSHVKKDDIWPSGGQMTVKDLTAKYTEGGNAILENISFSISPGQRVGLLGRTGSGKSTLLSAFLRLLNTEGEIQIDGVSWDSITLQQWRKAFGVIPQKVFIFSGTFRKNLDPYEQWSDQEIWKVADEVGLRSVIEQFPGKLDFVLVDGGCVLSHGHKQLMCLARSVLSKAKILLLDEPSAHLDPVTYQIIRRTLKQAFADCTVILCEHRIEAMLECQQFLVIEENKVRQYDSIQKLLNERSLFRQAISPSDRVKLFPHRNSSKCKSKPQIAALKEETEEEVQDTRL
Quick list: EC50 per entry.

If you can, please state the reported EC50 value of `COc1ccc(C(C)(C)C)cc1CN[C@H]1[C@H](C(C)(C)C)[C@@H](C(=O)O)N(C(=O)CC2CCCCC2)[C@H]1c1ccccc1` . < 1000 nM

What do you have for `COc1ccc(S(F)(F)(F)(F)F)cc1CN[C@H]1[C@H](C(C)(C)C)[C@@H](C(=O)O)N(C(=O)OC(C)C)[C@H]1c1ccccc1` ? 1000 to 10000 nM

Queued: COc1ccc(S(C)(=O)=O)cc1CN[C@@H]1[C@@H](C(C)(C)C)[C@H](C(=O)O)N(C(=O)C2CCCCC2)[C@@H]1c1ccccc1 (racemic) > 10000 nM

====

molecular target: F508delCFTR (Homo sapiens, UniProt P13569, DEL508-508); construct: expressed in transfected cells; host or cells: CFBE41o- human lung-derived epithelial cells (CFBE4lo-F508delCFTR-HRP), doxycycline-inducible; assay: Cell Surface Expression-Horse Radish Peroxidase (CSE-HRP) Assay; format: cell-based; conditions: with co-corrector (2 μM of 3-[(2R,4R)-4-({[1-(2,2-difluoro-1,3-benzodioxol-5-yl)cyclopropyl]carbonyl}amino)-7-methoxy-3,4-dihydro-2H-chromen-2-yl]benzoic acid); maximum at any tested concentration, normalized to on-plate positive control;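 on Maximum % activity (with co-corrector): co-corrector and positive control are both the same reference corrector at 2 µM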
ATTRIBUTE MEASURED: Maximum % activity (with co-corrector)

Here's what some known entries look like.
COc1cccc(-c2cc(CN[C@H]3[C@H](C(C)(C)C)[C@@H](C(=O)O)N(C(=O)C4CCCCC4)[C@H]3c3ccccc3)c(OC)cn2)c1 : +++ (≥350)
CC#CCOC(=O)N1[C@H](C(=O)O)[C@@H](C(C)(C)C)[C@H](NCc2cc(C(C)(C)C)ccc2OC)[C@@H]1c1ccccc1 : +++ (≥350)
CC(C)(C)[C@H]1[C@H](NCC2(c3ccc4c(c3)OC(F)(F)O4)CC2)[C@H](c2ccccc2)N(C(=O)C2CCCCC2)[C@@H]1C(=O)O : +++ (≥350)
Cc1cc(C(F)(F)F)cc(N[C@H]2[C@H](C(C)(C)C)[C@@H](C(=O)O)N(C(=O)C3CCCCO3)[C@H]2c2cccnc2N(C)C)n1 (relative stereo) : ++ (≥150 and <350)
CC(C)(C)[C@@H]1[C@@H](NCc2cc(Cl)ncc2O)[C@@H](c2ccccc2)N(C(=O)C2CCCCC2)[C@H]1C(=O)O (racemic) : ++ (≥150 and <350)

Name the reported Maximum % activity (with co-corrector) value associated with the molecule COc1ccc(C(C)(C)C)cc1CN[C@H]1[C@H](C(C)(C)C)[C@@H](C(=O)O)N(C(=O)C2CC(F)C2)[C@H]1c1ccccc1 (stereo partly drawn) +++ (≥350)

====

Biological target: F508delCFTR (Homo sapiens, UniProt P13569, DEL508-508)
Construct: expressed in transfected cells; host or cells: CFBE41o- human lung-derived epithelial cells (CFBE4lo-F508delCFTR-HRP), doxycycline-inducible
Assay: Cell Surface Expression-Horse Radish Peroxidase (CSE-HRP) Assay
Type: cell-based
Settings: test compound without co-corrector; read-out: EC50 (without co-corrector)
Protocol: Cell Surface Expression-Horse Radish Peroxidase (CSE-HRP) Assay The development was achieved by expressing the F508delCFTR mutation along with a horseradish peroxidase (HRP) in the fourth exofacial loop, and then measuring the HRP activity using luminescence readout from these cells, CFBE4lo-F508delCFTR-HRP, that were incubated overnight with the test corrector compounds, either without or with the co-corrector. […] The raw counts from the experiment were analyzed using Accelrys® Assay Explorer v3.3. […]
ATTRIBUTE MEASURED: EC50

Reference set (2 entries):
COc1ncc(C(F)(F)F)cc1CN[C@H]1[C@H](C(C)(C)C)[C@@H](C(=O)O)N(C(=O)OC(C)C)[C@H]1c1cccnc1OC(C)C [Example 79] : 1000 to 10000 nM
COc1ccc(C(C)(C)C)cc1CN[C@H]1[C@H](C(C)(C)OC)[C@@H](C(=O)O)N(C(=O)C2CCCCC2)[C@H]1c1ccccc1 [Example I-61] : 1000 to 10000 nM

Turning now to a further compound:
// returns reported EC50 for input COc1ncc(C2(C)CC2(F)F)cc1CN[C@H]1[C@H](C(C)(C)C)[C@@H](C(=O)O)N(C(=O)C2CCCCC2)[C@H]1c1ccccc1 (stereo partly drawn) [II-422] < 1000 nM
